assay: Half life in mouse at 2.5 mg/kg, po; format: ADME, organism-based; set-up: dose 2.5 mg/kg, route oral; conditions: in vivo
MEASURE NAME: half-life
Put down the number, then write its unit next to it.

[in] Any idea what half-life was measured for CN1CCN(c2cc(-c3ccc(C#N)cc3)nc(N)n2)CC1 ?
[out] 36 min

---

assay: Tmax in mouse at 20 mg/kg, po; assay type: ADME, organism-based; set-up: dose 20 mg/kg, route oral; conditions: in vivo
MEASURE NAME: Tmax (h)
One number for each entry, in h.

[in] Any idea what Tmax was measured for CN1CCN(C(=O)c2cc3cc(Cl)ccc3[nH]2)CC1 ?
[out] 1.33

---

target: Histamine H4 receptor (Homo sapiens, UniProt Q9H3N8); details: HEK293
Sequence (Q9H3N8 whole entry): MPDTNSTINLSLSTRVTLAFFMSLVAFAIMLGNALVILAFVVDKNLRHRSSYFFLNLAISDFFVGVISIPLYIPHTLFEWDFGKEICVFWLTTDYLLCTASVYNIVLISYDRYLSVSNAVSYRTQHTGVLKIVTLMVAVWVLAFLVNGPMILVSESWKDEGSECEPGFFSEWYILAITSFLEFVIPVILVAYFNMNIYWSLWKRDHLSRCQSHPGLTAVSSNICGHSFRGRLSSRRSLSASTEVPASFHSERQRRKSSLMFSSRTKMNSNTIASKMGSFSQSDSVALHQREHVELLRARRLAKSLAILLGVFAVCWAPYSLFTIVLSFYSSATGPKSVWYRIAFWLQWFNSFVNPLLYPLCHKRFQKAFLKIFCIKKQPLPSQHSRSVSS
MEASURE NAME: pKb
Give bare numbers.

Known pKb results, listed for orientation:
SMILES REPRESENTATION	pKb
COc1ccc(-c2cc(N3CCN(C)CC3)nc(N)n2)cc1	8.08
COc1cccc(-c2cc(N3CCN(C)CC3)nc(N)n2)c1	8.12
CN1CCN(c2cc(C(C)(C)C)nc(O)n2)CC1	4.39

# return pKb for each item in the list
1. CNc1cc(N2CCN(C)CC2)nc(N)n1
2. CN1CCN(c2cc(-c3ccncc3)nc(N)n2)CC1
3. COc1ccccc1-c1cc(N2CCN(C)CC2)nc(N)n1
4. CN1CCN(c2cc(N)nc(N)n2)CC1
5. CN1CCN(c2cc(N3CCCC3)nc(N)n2)CC1
6. CN1CCN(c2cc(Sc3ccccc3)nc(N)n2)CC1
7. Cc1cccc(-c2cc(N3CCN(C)CC3)nc(N)n2)c1

[out]
8.28
7.38
8.86
6.37
8.41
5.99
8.62

---

molecular target: Histamine H4 receptor (Homo sapiens, UniProt Q9H3N8); settings: HEK293
Think of 7 as a floor: if pKb stands on it or above, it is t; beneath it, f.

SMILES REPRESENTATION	ASSIGNED LABEL
CN1CCN(c2nc(N)ncc2-c2ccccc2)CC1	f

As a next step, examine the compound that follows.
[in] Test whether the compound CN1CCN(c2cc(-c3cn[nH]c3)nc(N)n2)CC1 records pKb of 7 or higher.
[out] t

---

experiment: Bioavailability in rat at 10 mg/kg, po; format: ADME, organism-based; conditions: in vivo
MEASURE NAME: bioavailability (%)
Numbers only, in %.

[in] Any idea what bioavailability was measured for CN1CCN(C(=O)c2cc3cc(Cl)ccc3[nH]2)CC1 ?
[out] 47

---

biological target: Histamine H4 receptor (Rattus norvegicus, UniProt Q91ZY1); experiment: Agonist activity at rat histamine H4 receptor expressed in HEK293 cells coexpressing Gqi5 protein assessed as calcium flux by FLIPR assay; type: functional, cell-based
Sequence (Q91ZY1 whole entry): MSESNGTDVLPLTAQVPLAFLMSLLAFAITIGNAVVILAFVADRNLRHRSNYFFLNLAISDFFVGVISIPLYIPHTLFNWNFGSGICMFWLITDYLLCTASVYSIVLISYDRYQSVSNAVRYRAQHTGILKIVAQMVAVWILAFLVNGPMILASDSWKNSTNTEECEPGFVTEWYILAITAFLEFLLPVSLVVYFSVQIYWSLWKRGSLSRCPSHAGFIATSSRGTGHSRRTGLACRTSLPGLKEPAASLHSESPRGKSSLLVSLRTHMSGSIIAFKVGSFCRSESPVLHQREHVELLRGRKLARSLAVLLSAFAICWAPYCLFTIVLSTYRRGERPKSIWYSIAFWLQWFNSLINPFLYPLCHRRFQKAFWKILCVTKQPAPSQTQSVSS
Binary label based on EC50 with cut-off 2000 nM: below gives met, not below gives not met.

# count of solved cases: 8
SMILES REPRESENTATION	ASSIGNED LABEL
COc1ncc(-c2cc(N3CCN(C)CC3)nc(N)n2)cn1	not met
CN1CCN(c2cc(-n3ccnc3)nc(N)n2)CC1	not met
CN1CCN(c2cc(N3CCCC3)nc(N)n2)CC1	met
CN1CCN(c2nc(N)cc(C(C)(C)C)n2)CC1	not met
COc1cnc(N)nc1N1CCN(C)CC1	met
CN1CCN(c2cc(-c3cccc(C#N)c3)nc(N)n2)CC1	met
COc1ccncc1-c1cc(N2CCN(C)CC2)nc(N)n1	met
CN1CCN(c2cc(Nc3ccccc3)nc(N)n2)CC1	met

[in] # check: EC50 < 2000 nM for CN(C)CCCN(C)c1cc(C(C)(C)C)nc(N)n1
[out] not met

[in] # check: EC50 < 2000 nM for CN(C)CCN1CCN(c2cc(C(C)(C)C)nc(N)n2)CC1
[out] not met

[in] # check: EC50 < 2000 nM for CC1CCN(c2cc(C(C)(C)C)nc(N)n2)CC1
[out] not met

[in] # check: EC50 < 2000 nM for CN1CCN(c2cc(-c3cn[nH]c3)nc(N)n2)CC1
[out] met

---

test: Cmax in mouse at 5 mg/kg, iv; format: ADME, organism-based; set-up: dose 5 mg/kg, route intravenous; conditions: in vivo
MEASURE NAME: Cmax
Put down the number, then write its unit next to it.

[in] Any idea what Cmax was measured for CN1CCN(C(=O)c2cc3cc(Cl)ccc3[nH]2)CC1 [JNJ-7777120] ?
[out] 560 ng/mL

---

assay: Bioavailability in mouse at 2.5 mg/kg, po; format: ADME, organism-based; settings: in vivo
MEASURE NAME: bioavailability (%)
One number for each entry, in %.

[in] Any idea what bioavailability was measured for CN1CCN(c2cc(-c3ccc(C#N)cc3)nc(N)n2)CC1 ?
[out] 41

---

target: UniProt Q9H3N8; experiment: Agonist activity at human histamine H4 receptor expressed in HEK293 cells coexpressing Gqi5 protein assessed as calcium flux by FLIPR assay relative to histamine; assay type: functional, cell-based
I'd appreciate it if you could supply Efficacy values for the items below.
One number for each entry, in %.

Known Efficacy results, listed for orientation:
SMILES REPRESENTATION	READOUT UNITS	Efficacy
COc1nc(N2CCN(C)CC2)cc(C(C)(C)C)n1	%	43
CN1CCN(c2cc(C(C)(C)C)nc(N(C)C)n2)CC1	%	100
CN1CCN(c2nc(N)ncc2N)CC1	%	38
CN1CCN(c2cc(-n3cnc4ccccc43)nc(N)n2)CC1	%	82
CN1CCN(c2cc(-n3ccccc3=O)nc(N)n2)CC1	%	27

// moving on: another record for Efficacy
[in] Provide value of Efficacy for this record tested with UniProt Q9H3N8: COc1ncccc1-c1cc(N2CCN(C)CC2)nc(N)n1
[out] 32

---

experiment: Half life in mouse at 5 mg/kg, iv; assay type: ADME, organism-based; parameters: dose 5 mg/kg, route intravenous; conditions: in vivo
MEASURE NAME: half-life (min)
Answers are plain numbers, in min.

[in] Any idea what half-life was measured for CN1CCN(C(=O)c2cc3cc(Cl)ccc3[nH]2)CC1 ?
[out] 42

---

target: Histamine H4 receptor (Rattus norvegicus); experiment: Agonist activity at rat histamine H4 receptor expressed in HEK293 cells coexpressing Gqi5 protein assessed as calcium flux by FLIPR assay relative to histamine; assay type: functional, cell-based
Binary label based on Efficacy with cut-off 60%: below gives TRUE, not below gives FALSE.

# count of solved cases: 5
SMILES REPRESENTATION	ASSIGNED LABEL
CN1CCN(c2cc(-c3cn[nH]c3)nc(N)n2)CC1	TRUE
CC1CCN(c2cc(C(C)(C)C)nc(N)n2)CC1	FALSE
CNc1cc(N2CCN(C)CC2)nc(N)n1	FALSE
COc1c(-c2ccc(C#N)cc2)nc(N)nc1N1CCN(C)CC1	TRUE
COc1cnc(N)nc1N1CCN(C)CC1	FALSE

[in] # check: Efficacy < 60% for CN1CCN(c2cc(N)nc(C(C)(C)C)n2)CC1
[out] TRUE

[in] # check: Efficacy < 60% for CN1CCN(c2cc(-c3ccncc3)nc(N)n2)CC1
[out] FALSE

---

test: Bioavailability in mouse at 20 mg/kg, po; type: ADME, organism-based; settings: in vivo
MEASURE NAME: bioavailability (%)
Answers are plain numbers, in %.

[in] Any idea what bioavailability was measured for CN1CCN(C(=O)c2cc3cc(Cl)ccc3[nH]2)CC1 ?
[out] 24

---

experiment: Tmax in rat at 1 mg/kg, po; type: ADME, organism-based; design: dose 1 mg/kg, route oral; settings: in vivo
MEASURE NAME: Tmax

[in] Any idea what Tmax was measured for CN1CCN(c2cc(-c3ccc(C#N)cc3)nc(N)n2)CC1 ?
[out] 24 min

---

target: Histamine H4 receptor (Homo sapiens, UniProt Q9H3N8); conditions: HEK293
I'd appreciate it if you could supply pKb values for the items below.
Numbers only.

Known pKb results, listed for orientation:
SMILES REPRESENTATION	pKb
CN1CCN(c2nc(N)nc(C(C)(C)C)n2)CC1	7.04
CCN(CC)c1cc(N2CCN(C)CC2)nc(N)n1	7.55

# return pKb for each item in the list
1. CN1CCN(c2cc(-c3cccc(I)c3)nc(N)n2)CC1
2. CN1CCN(c2cc(-c3cncnc3)nc(N)n2)CC1
3. CN1CCN(c2cc(-c3ccccc3C#N)nc(N)n2)CC1
4. CN1CCN(c2cc(N(C)c3ccccc3)nc(N)n2)CC1

[out]
1: 8.27; 2: 5.84; 3: 6.75; 4: 6.96

---

Consider the following pKi values measured on Histamine H3 receptor (Homo sapiens, UniProt Q9Y5N1).
Sequence (Q9Y5N1 whole entry): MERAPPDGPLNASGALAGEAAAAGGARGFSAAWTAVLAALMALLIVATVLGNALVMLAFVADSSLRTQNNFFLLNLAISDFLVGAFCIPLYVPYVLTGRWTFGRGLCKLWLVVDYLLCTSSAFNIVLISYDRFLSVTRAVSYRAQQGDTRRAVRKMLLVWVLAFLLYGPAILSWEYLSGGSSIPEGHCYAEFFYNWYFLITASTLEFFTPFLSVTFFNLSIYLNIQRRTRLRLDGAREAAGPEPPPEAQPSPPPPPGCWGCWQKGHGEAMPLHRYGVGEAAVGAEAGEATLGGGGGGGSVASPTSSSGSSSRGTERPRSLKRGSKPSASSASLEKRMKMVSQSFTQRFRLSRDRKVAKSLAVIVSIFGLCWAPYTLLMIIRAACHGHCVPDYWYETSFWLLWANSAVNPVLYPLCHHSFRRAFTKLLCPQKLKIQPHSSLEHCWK
Answers are plain numbers, as −log10 of the molar value.

# return pKi for each item in the list
1. CN1CCN(c2cc(-c3ccc(C#N)cc3)nc(N)n2)CC1
2. N#Cc1ccc(-c2cc(N3CCNCC3)nc(N)n2)cc1

[out]
1: 5.89; 2: 6.03
